ENDPOINT: melting point

According to the records, this molecule "Cc1cc(Nc2nccc(-c3cc(C#N)c4c(c3)[C@@](C)(CO)CN4)n2)c(=O)n(Cc2nccn2C)c1" displays melting point of 235 °C

According to the records, this molecule COc1ncccc1Nc1nccc(-c2cc(C#N)c3c(c2)C(C)(COCCN2CCOCC2)CN3)n1 (stereo not shown) displays melting point of 108 °C

According to the records, this molecule Cc1cnc(OC2CCN(C)CC2F)c(Nc2nccc(-c3cc(C#N)c4c(c3)[C@@](C)(CO)CN4)n2)c1 (stereo partly shown) displays melting point of 220 °C

According to the records, this molecule "CC(C)OCCOc1ncc(Cl)cc1Nc1nccc(-c2cc(C#N)c3c(c2)[C@@](C)(CO)CN3)n1" displays melting point of 170 °C

According to the records, this molecule "Cc1cc(Nc2nccc(-c3cc(C#N)c4c(c3)[C@@](C)(CO)CN4)n2)c(C)nc1OCC1COC1" displays melting point of 189 °C

According to the records, this molecule COc1ncccc1Nc1ncc(F)c(-c2cc(C#N)c3c(c2)C(C)(CO)CN3)n1 (stereo not shown) displays melting point of > 250 °C

According to the records, this molecule CN(C)CCn1cc(Cl)cc(Nc2nccc(-c3cc(C#N)c4c(c3)[C@@](C)(CO)CN4)n2)c1=O [Compound 12i] displays melting point of 198 °C

---

- Test system: JJN-3 (NIK translocated) multiple myeloma cells
- TEST_METHOD_NOTES: Antiproliferative activity on JJN-3 multiple myeloma cells (CellTiter-Glo)
- Assay type: cell-based, human
- PARTICULARS: Homo sapiens, JJN-3, 96 h, JJN-3 (NIK translocated) cells, 96 hr treatment, averaged values, read-out: JJN-3 Proliferation inhibition (IC50 (nM))
ENDPOINT: IC50 (nM)
Enter your answer as a number in nM; do not include the unit.

According to the records, this molecule Cc1cc(Nc2nccc(-c3cc(C#N)c4c(c3)[C@@](C)(CO)CN4)n2)c(=O)n(CCN2CC(C)OC(C)C2)c1 (stereo partly drawn) [Compound 2i] displays IC50 of 479

According to the records, this molecule COc1ncccc1Nc1ncc(F)c(-c2cc(C#N)c3c(c2)[C@@](C)(CO)CN3)n1 [Compound 103] displays IC50 of 120

According to the records, this molecule Cc1nc(P(C)(C)=O)c(Cl)cc1Nc1nccc(-c2cc(C#N)c3c(c2)[C@@](C)(CO)CN3)n1 [Compound 90] displays IC50 of 5890

According to the records, this molecule CC1(CO)CNc2c(C#N)cc(-c3nc(Nc4cccnc4OC4CCOCC4)ncc3F)cc21 (stereo not drawn) [Compound 107] displays IC50 of 309

According to the records, this molecule CN(C)CCn1cc(Cl)cc(Nc2nccc(-c3cc(C#N)c4c(c3)[C@@](C)(CO)CN4)n2)c1=O [Compound 12i] displays IC50 of 18

According to the records, this molecule COc1ncccc1Nc1ncc(F)c(-c2cc(C#N)c3c(c2)C(C)(CO)CN3)n1 (stereo not drawn) [Compound 101] displays IC50 of 204

According to the records, this molecule COc1nc(-c2cnn(C)c2)c(C)cc1Nc1nccc(-c2cc(C#N)c3c(c2)[C@@](C)(CO)CN3)n1 [Compound 91] displays IC50 of 81

According to the records, this molecule COc1nc(C2CCOCC2)ccc1Nc1nccc(-c2cc(C#N)c3c(c2)[C@@](C)(CO)CN3)n1 [Compound 44] displays IC50 of 81

According to the records, this molecule Cc1cc(Nc2nccc(-c3cc(C#N)c4c(c3)[C@@](C)(CO)CN4)n2)c(=O)n(Cc2nccn2C2CC2)c1 [Compound 6i] displays IC50 of 275

According to the records, this molecule COc1ncccc1Nc1nccc(-c2cc(C#N)c3c(c2)C(C)(COCCN2CCCC2)CN3)n1 (stereo not drawn) [Compound 118] displays IC50 of 4570

According to the records, this molecule COCCN(C)c1nc(C)c(Nc2nccc(-c3cc(C#N)c4c(c3)[C@@](C)(CO)CN4)n2)cc1Cl [Compound 51] displays IC50 of 31

According to the records, this molecule Cc1ncc(Nc2nccc(-c3cc(C#N)c4c(c3)[C@@](C)(CO)CN4)n2)c(OCC2(C)COC2)n1 [Compound 142] displays IC50 of 6310

---

ENDPOINT: melting point (°C)
Enter your answer as a number in °C; do not include the unit.

According to the records, this compound COCCOc1ncccc1Nc1nccc(-c2cc(C#N)c3c(c2)[C@](C)(CO)CN3)n1 [Compound 34] displays melting point of 152

According to the records, this compound COCCOc1nc(C)ncc1Nc1nccc(-c2cc(C#N)c3c(c2)[C@@](C)(CO)CN3)n1 [Compound 136] displays melting point of 231

According to the records, this compound Cc1cc(Nc2nccc(-c3cc(C#N)c4c(c3)[C@@](C)(CO)CN4)n2)c(=O)n(CC(C)N2CCOCC2)c1 (single isomer, unassigned) [Compound 23i] displays melting point of 136

According to the records, this compound COc1ncc(Cl)cc1Nc1nccc(-c2cc(C#N)c3c(c2)C(C)(COCCN2CCOCC2)CN3)n1 (centres unmarked) [Compound 121] displays melting point of 104

According to the records, this compound COc1ncc(C(F)(F)F)cc1Nc1nccc(-c2cc(C#N)c3c(c2)[C@@](C)(CO)CN3)n1 [Compound 183] displays melting point of 209

According to the records, this compound CCOC(=O)c1ccc(Nc2nccc(-c3cc(C#N)c4c(c3)C(C)(CO)CN4)n2)cn1 (centres unmarked) [Compound 9] displays melting point of 238

According to the records, this compound CC(C)Oc1ncccc1Nc1nccc(-c2cc(C#N)c3c(c2)C(C)(CO)CN3)n1 (centres unmarked) [Compound 18] displays melting point of 140

According to the records, this compound COc1ncccc1Nc1nccc(-c2cc(C#N)c3c(c2)C(C)(CN(C)CCO)CN3)n1 (centres unmarked) [Compound 114] displays melting point of 60

According to the records, this compound Cc1nc(/C=C/C(=O)N(C)C)ccc1Nc1nccc(-c2cc(C#N)c3c(c2)[C@@](C)(CO)CN3)n1 [Compound 73] displays melting point of 231

According to the records, this compound COc1ncccc1Nc1nccc(-c2cc(C#N)c3c(c2)C(C)(COCCNC(C)C)CN3)n1 (centres unmarked) [Compound 116] displays melting point of 95

According to the records, this compound COCCNc1nc(OC(C)C)c(Nc2nccc(-c3cc(C#N)c4c(c3)C(C)(CO)CN4)n2)cc1Cl (centres unmarked) [Compound 13] displays melting point of 125

According to the records, this compound COc1ncc(Cl)cc1Nc1nccc(-c2cc(C#N)c3c(c2)C(C)(CO)CN3)n1 (centres unmarked) [Compound 3] displays melting point of 254

According to the records, this compound C[C@]1(CO)CNc2c(C#N)cc(-c3ccnc(Nc4cc(C#N)cnc4OCC4CC4)n3)cc21 [Compound 74] displays melting point of 206

According to the records, this compound COCCCc1ncc(C#N)cc1Nc1nccc(-c2cc(C#N)c3c(c2)[C@@](C)(CO)CN3)n1 [Compound 65] displays melting point of 158

According to the records, this compound COC[C@@]1(C)CNc2c(C#N)cc(-c3ccnc(Nc4cc(Cl)cnc4C)n3)cc21 [Compound 122] displays melting point of 182

According to the records, this compound COc1ncc(Cl)cc1Nc1nccc(-c2cc(C#N)c3c(c2)[C@](C)(COC(=O)[C@H](C)N)CN3)n1 [Compound 109] displays melting point of 171

According to the records, this compound C[C@]1(CO)CNc2c(C#N)cc(-c3ccnc(Nc4cccnc4OC[C@H]4CCCO4)n3)cc21 [Compound 43] displays melting point of 141

According to the records, this compound COCCNc1ccc(Nc2nccc(-c3cc(C#N)c4c(c3)C(C)(CO)CN4)n2)c(OC)n1 (centres unmarked) [Compound 12] displays melting point of 120

According to the records, this compound COCCN(C)c1nc(C)c(Nc2nccc(-c3cc(C#N)c4c(c3)[C@@](C)(CO)CN4)n2)cc1Cl [Compound 51] displays melting point of 152

According to the records, this compound CCCCc1ncc(C#N)cc1Nc1nccc(-c2cc(C#N)c3c(c2)[C@@](C)(CO)CN3)n1 [Compound 66] displays melting point of 178

According to the records, this compound Cc1cc(Nc2nccc(-c3cc(C#N)c4c(c3)[C@@](C)(CO)CN4)n2)c(C)nc1OCC1(C)COC1 [Compound 159] displays melting point of 179

According to the records, this compound COCCNc1nc(OC)c(Nc2nccc(-c3cc(C#N)c4c(c3)[C@](C)(CO)CN4)n2)cc1Cl [Compound 11] displays melting point of 236

According to the records, this compound Cc1cnc(OC2CCN(C)CC2)c(Nc2nccc(-c3cc(C#N)c4c(c3)[C@@](C)(CO)CN4)n2)c1 [Compound 146] displays melting point of 135

According to the records, this compound Cc1cc(Nc2nccc(-c3cc(C#N)c4c(c3)[C@@](C)(CO)CN4)n2)c(=O)n(CCN2CC(F)(F)C2)c1 [Compound 17i] displays melting point of 190

According to the records, this compound CC1(C)CNc2c(C#N)cc(-c3ccnc(Nc4cnc(N5CCOCC5)nc4)n3)cc21 [Compound 125] displays melting point of 270

According to the records, this compound Cc1cc(Nc2nccc(-c3cc(C#N)c4c(c3)[C@@](C)(CO)CN4)n2)c(=O)n(CC2(C)COC2)c1 [Compound 29i] displays melting point of 129

According to the records, this compound CN1CCCC(COc2ncc(Cl)cc2Nc2nccc(-c3cc(C#N)c4c(c3)[C@@](C)(CO)CN4)n2)C1 (single isomer, unassigned) [Compound 55] displays melting point of 204

According to the records, this compound Cc1cc(Nc2nccc(-c3cc(C#N)c4c(c3)[C@@](C)(CO)CN4)n2)c(=O)n(CC(C)N2CCOCC2)c1 (single isomer, unassigned) [Compound 22i] displays melting point of 138

According to the records, this compound CN(C)C(=O)CCc1ccc(Nc2nccc(-c3cc(C#N)c4c(c3)[C@@](C)(CO)CN4)n2)c(CCC2CC2)n1 [Compound 89] displays melting point of 301
